- Test system: NCI-H23 lung
- Test method notes: NCI tumour cell line growth inhibition, 48 h
Measurement kind: TGI

Ask: Entry under review: "O=C(/C=C\Nc1ccccc1O)C(F)(F)F" . Reported TGI?
Reply: > 100 µM

Ask: Same thing, different compound: "O=C1CS/C(=N/N=C/c2cn(Cc3ccc(Cl)cc3Cl)c3ccccc23)N1"
Reply: > 100 µM

Ask: Same thing, different compound: "Cc1cc(S(=O)(=O)Nc2n[nH]c(Nc3ccccc3)n2)c(SCC(=O)O)cc1Cl"
Reply: > 100 µM

Ask: Same thing, different compound: "CCc1nc(N)nc(N)c1-c1ccc([N+](=O)[O-])c(NCc2ccccc2)c1"
Reply: > 60.6 µM

Ask: Same thing, different compound: "S=C(N/N=C/c1cc(Cl)cc(Cl)c1)NC12CC3CC(CC(C3)C1)C2"
Reply: > 100 µM

====

- Test system: SNB-75 CNS
- Test method notes: NCI tumour cell line growth inhibition, 48 h; in the data active = GI50 below about 0.43 µM; inactive = the rest
Thanks in advance; please answer with one of these: active, inactive

Ask: What did this assay record as the result for COc1cc(C2c3cc4c(cc3[C@@H](Nc3ccc(N(C)C)cc3)[C@H]3COC(=O)C23)OCO4)cc(OC)c1O (some centres not stated) ?
Reply: inactive

Ask: Same thing, different compound: "Cc1ccc(C(=O)Nc2ccc(CN3CCN(C)CC3)c(C(F)(F)F)c2)cc1C#Cc1cnc(N)c2ccc(F)cc12"
Reply: active

Ask: Same thing, different compound: "CC[O-].CC[O-].O=C1C(=C([O-])c2ccccc2)C(=O)c2ccccc21.O=C1C(=C([O-])c2ccccc2)C(=O)c2ccccc21.[Ti+4]"
Reply: inactive

Ask: Same thing, different compound: "N=C(N)c1ccc(-c2ccc(-c3ccc(Cl)cc3Cl)o2)cc1"
Reply: inactive

Ask: Same thing, different compound: "CSc1ccc(C2=Nn3c(nnc3-c3ccc(F)c(Cl)c3)SC2)cc1"
Reply: inactive

Ask: Same thing, different compound: "COc1cc(Nc2ccnc(N3CCN(c4ccnc5cc(Cl)ccc45)CC3)n2)cc(OC)c1"
Reply: inactive

Ask: Same thing, different compound: "C/C(=N\O)c1ccc(Nc2cc(-n3nnc4ccccc43)nc3ccccc23)cc1"
Reply: inactive

====

- Test system: HCT-15 colon
- Test method notes: NCI tumour cell line growth inhibition, 48 h
Provide the reported TGI of each item.

Ask: Entry under review: "COc1cc(OC)cc(Oc2nc3cc(F)c(F)cc3nc2-c2ccccc2)c1" . Reported TGI?
Reply: > 100 µM

Ask: Same thing, different compound: "O=C1N/N=C\c2ccc(cc2)OCc2cccc(n2)COc2ccc(cc2)/C=N\NC1=O"
Reply: > 25 µM

Ask: Same thing, different compound: "O=C(CCc1nc(=S)[nH][nH]1)NC12CC3CC(CC(C3)C1)C2"
Reply: > 100 µM

Ask: Same thing, different compound: NCCCCNCCCNC(=O)CNC(=O)CC(O)C(N)CCCC(NC(=O)C(CN)NC(=O)C(O)CNC(=O)CC(N)c1ccc(O)cc1)C(=O)O (stereo not given)
Reply: > 10 µM

Ask: Same thing, different compound: COc1cccc(N2C(=O)CS(=O)(=O)C2c2cccc(Oc3ccccc3)c2)c1 (stereo not given)
Reply: > 100 µM

====

- Tested on: COLO 205 colon
- Test method notes: NCI tumour cell line growth inhibition, 48 h
Provide the reported TGI of each item.

Ask: Entry under review: CCOC(=O)/C=C(/C=C\COC1CCCCO1)c1ccccc1 (centres undefined) . Reported TGI?
Reply: > 100 µM

Ask: Same thing, different molecule: "N#Cc1ccc(-c2nc(C#N)c(N)o2)cc1"
Reply: > 10 µM

Ask: Same thing, different molecule: "Clc1ccc([O][In]([O]c2ccc(Cl)cn2)[O]c2ccc(Cl)cn2)nc1"
Reply: > 100 µM

Ask: Same thing, different molecule: "COc1ccc2nc(-c3ccccc3)cc(Nc3cccc(/C(C)=N\O)c3)c2c1"
Reply: > 100 µM

====

Provide the reported TGI of each item.
- System: NCI-H522 lung
- Test method notes: NCI tumour cell line growth inhibition, 48 h

Ask: Entry under review: "Clc1cc(C(c2cc(Cl)sc2Cl)c2cc(Cl)sc2Cl)c(Cl)s1" . Reported TGI?
Reply: > 100 µM

Ask: Same thing, different molecule: "CCN(CC)c1ccc(NC(=S)NN(C)C)cc1"
Reply: > 10 µM

Ask: Same thing, different molecule: CCCCCCCCCCCCNC(=O)CCC(NC(=O)c1ccc(N(C)Cc2cnc3nc(N)nc(N)c3n2)cc1)C(=O)NCCCCCCCCCCCC (stereo not given)
Reply: > 100 µM

Ask: Same thing, different molecule: "N#Cc1nc(CCCN2C(=O)c3ccccc3C2=O)oc1N"
Reply: > 100 µM

Ask: Same thing, different molecule: "O=C(C(=O)c1ccc(Cc2ccc(C(=O)C(=O)c3ccccc3)cc2)cc1)c1ccccc1"
Reply: > 100 µM

====

- Tested on: HT29 colon
- Test method notes: NCI tumour cell line growth inhibition, 48 h
Provide the reported TGI of each item.

Ask: Entry under review: "Nc1nncc2[nH]cnc12" . Reported TGI?
Reply: > 100 µM

Ask: Same thing, different compound: "O=CN1CCN(C(=O)c2ccco2)C1=S"
Reply: 26.2 µM

Ask: Same thing, different compound: "CC(C)n1c(/C=C/[C@@H](O)C[C@@H](O)CC(=O)O)c(-c2ccc(F)cc2)c2ccccc21"
Reply: > 100 µM

Ask: Same thing, different compound: "Cc1cnc2[nH]c(-c3cccc(F)c3)cc(=O)c2c1"
Reply: 0.806 µM

Ask: Same thing, different compound: CSc1nc2c(c(O)c(C)c(=O)n2C2OC(COC(C)=O)C(OC(C)=O)C(OC(C)=O)C2OC(C)=O)c(=O)n1C (stereo not given)
Reply: > 100 µM

====

- Tested on: KM12 colon
- Test method notes: NCI tumour cell line growth inhibition, 48 h
Provide the reported TGI of each item.

Ask: Look up TGI with KM12 colon for this compound: "Clc1ccc(OCc2nnc(COc3ccc(OCc4nnc(COc5ccc(Cl)cc5Cl)o4)c(Cl)c3)o2)c(Cl)c1"
Reply: > 100 µM

Ask: Same thing, different compound: "CC12CC3(C)CC(C)(C1)CC(N=[N+]=[N-])(C2)C3"
Reply: > 100 µM

Ask: Same thing, different compound: COc1ccc(OC)c(NC(=O)C(=O)C(C(=O)c2ccccc2F)C2OC(=O)c3ccccc32)c1 (stereo not given)
Reply: > 100 µM

Ask: Same thing, different compound: N#Cc1nc(C2CCC(=O)O2)oc1N (stereo not given)
Reply: > 100 µM

Ask: Same thing, different compound: CCCCCCCCCCCCNC(=O)CCC(NC(=O)c1ccc(N(C)Cc2cnc3nc(N)nc(N)c3n2)cc1)C(=O)NCCCCCCCCCCCC (stereo not given)
Reply: > 100 µM

====

- System: MALME-3M melanoma
- Test method notes: NCI tumour cell line growth inhibition, 48 h
Measurement kind: TGI

Ask: Look up TGI with MALME-3M melanoma for this compound: O=c1[nH]c(=O)n(C2CC(O)C(CO)O2)cc1OC/C=C/Cc1ccccc1 (centres undefined)
Reply: > 100 µM

Ask: Same thing, different compound: COc1ccc([C@H]2CC(=O)N3CCCC3N2)cc1 (some centres undefined)
Reply: > 100 µM

Ask: Same thing, different compound: "O=C1N/N=C\c2ccc(cc2)OCc2cccc(n2)COc2ccc(cc2)/C=N\NC1=O"
Reply: > 25 µM

Ask: Same thing, different compound: "COc1cc(OC)cc(Oc2nc3cc(F)c(F)cc3nc2-c2ccccc2)c1"
Reply: > 100 µM

Ask: Same thing, different compound: C#CCOCC12C=CC(O1)C1COC(=O)C12 (centres undefined)
Reply: > 100 µM

Ask: Same thing, different compound: "Cc1ccc(C(=O)Cc2nc3c([nH]c2=O)c(C)nn3-c2ccccc2)c(C)c1"
Reply: > 10 µM

Ask: Same thing, different compound: "COc1ccc(C2=C(Cl)C(=O)O/C2=C\c2ccc(OC)c(Br)c2)cc1Cl"
Reply: > 100 µM

Ask: Same thing, different compound: Cc1ccc2c(c1C)CC1(Cc3c(C)ccc(C)c3C1=O)C2=O (centres undefined)
Reply: > 100 µM

Ask: Same thing, different compound: "COc1cc2c3c(cc(Cl)nc3c1OC)C(=O)C(=O)N2"
Reply: 3.82 µM

Ask: Same thing, different compound: "CNC(=O)Nc1ccc(-c2nc(N3CCOCC3)nc3c2cnn3C2CCOCC2)cc1"
Reply: 0.44 µM

Ask: Same thing, different compound: "C[C@]12CC[C@@H]3c4ccc(O)c([N+](=O)[O-])c4CC[C@H]3[C@@H]1CC[C@@H]2NS(=O)(=O)c1ccc(C(F)(F)F)cc1"
Reply: 5.41 µM

Ask: Same thing, different compound: "Clc1ccc(OCc2nnc(COc3ccc(OCc4nnc(COc5ccc(Cl)cc5Cl)o4)c(Cl)c3)o2)c(Cl)c1"
Reply: > 100 µM

Ask: Same thing, different compound: CC1(C)C(=O)C(O)=CC2C1=CCC1C2(C)C(=O)CC2(C)C(C(C)(O)C(=O)CC(O)C(C)(C)O)C(O)CC12C (centres undefined)
Reply: 12.1 µM

Ask: Same thing, different compound: "N#Cc1ccc(-c2nc(C#N)c(N)o2)cc1"
Reply: > 10 µM

Ask: Same thing, different compound: "CNC(=S)NNc1ncnc2c1c(-c1ccc(Cl)cc1)cn2-c1ccc(C)cc1"
Reply: 33 µM

Ask: Same thing, different compound: NCCCCNCCCNC(=O)CNC(=O)CC(O)C(N)CCCC(NC(=O)C(CN)NC(=O)C(O)CNC(=O)CC(N)c1ccc(O)cc1)C(=O)O (centres undefined)
Reply: > 10 µM

Ask: Same thing, different compound: "Nc1c(C(=O)Nc2ccc([As](=O)(O)O)cc2)cnc2nnnn12"
Reply: > 100 µM

Ask: Same thing, different compound: CCOC(=O)/C=C(/C=C\COC1CCCCO1)c1ccccc1 (centres undefined)
Reply: > 100 µM

Ask: Same thing, different compound: COC(=O)C1=CCON(c2ccccc2)C1c1ccccc1 (centres undefined)
Reply: > 100 µM

Ask: Same thing, different compound: "Cc1cc(N(CCNc2ccnc3cc(Cl)ccc23)Cc2ccc3c(c2)OCO3)nc(N2CCN(C)CC2)n1"
Reply: 3.36 µM

Ask: Same thing, different compound: COc1cccc(N2C(=O)CS(=O)(=O)C2c2cccc(Oc3ccccc3)c2)c1 (centres undefined)
Reply: 69.8 µM

Ask: Same thing, different compound: "COc1cc2cc(Oc3ccc(NC(=O)c4cccc(C(F)(F)F)c4)cc3)c(C)nc2cc1OC"
Reply: > 100 µM

Ask: Same thing, different compound: "NS(=O)(=O)c1ccc(N2Cc3cc(Cl)ccc3OC3=C2C(=O)N(CC2CCCCC2)C3=O)cc1"
Reply: 2.83 µM

Ask: Same thing, different compound: "NC(N)=NS(=O)(=O)c1ccc(NC(=O)c2cccc3c(NNc4ccc(S(N)(=O)=O)cc4)c4ccccc4nc23)cc1"
Reply: 88.8 µM

Ask: Same thing, different compound: "CC1(C)OC[C@@H](C[C@H](O)COCc2ccccc2)O1"
Reply: > 100 µM

Ask: Same thing, different compound: CSc1nc2c(c(O)c(C)c(=O)n2C2OC(COC(C)=O)C(OC(C)=O)C(OC(C)=O)C2OC(C)=O)c(=O)n1C (centres undefined)
Reply: > 100 µM

Ask: Same thing, different compound: "CC[O-].CC[O-].O=C1C(=C([O-])c2ccccc2)C(=O)c2ccccc21.O=C1C(=C([O-])c2ccccc2)C(=O)c2ccccc21.[Ti+4]"
Reply: > 100 µM

Ask: Same thing, different compound: NC(Cc1[nH]nc2ccccc12)C(=O)O (centres undefined)
Reply: > 100 µM

Ask: Same thing, different compound: "Cn1cc(C2=C(c3cn(C)c4ccc(N)cc34)C(=O)NC2=O)c2ccccc21"
Reply: > 25 µM
